These data points were gathered from patent US12030896B2.

- PROCEDURE_SUMMARY: Pharmacokinetic study of Example 1 in mouse (IV, IP, PO)
- Type: in vivo, Male C57BL/6 Mouse
- CONDITION_DESCRIPTION: male, C57BL/6, mouse, plasma, po, 30 mg/kg, PO 30 mg/kg; 0.500 h; individual mice M7-M9
PARAMETER: concentration at 0.5 h (ng/mL)
Express your answer in ng/mL, writing the number without its unit.

Problem: Look up concentration at 0.5 h: Cc1ccc(Nc2nc(N/N=C/c3c[nH]c4ccccc34)nc(N3CCOCC3)n2)cc1 [Example 1]
Result: 167

====

- PROCEDURE_SUMMARY: Pharmacokinetic study of Example 1 in mouse (IV, IP, PO)
- Assay type: in vivo, Male C57BL/6 Mouse
- CONDITION_DESCRIPTION: male, C57BL/6, mouse, plasma, po, 30 mg/kg, PO 30 mg/kg; 0.500 h; mean
PARAMETER: concentration at 0.5 h (µg/mL)
Express your answer in µg/mL, writing the number without its unit.

Problem: Look up concentration at 0.5 h: Cc1ccc(Nc2nc(N/N=C/c3c[nH]c4ccccc34)nc(N3CCOCC3)n2)cc1
Result: 0.122

====

- PROCEDURE_SUMMARY: Pharmacokinetic study of Example 1 in mouse (IV, IP, PO)
- Format: in vivo, Male C57BL/6 Mouse
- CONDITION_DESCRIPTION: male, C57BL/6, mouse, plasma, ip, 30 mg/kg, IP 30 mg/kg; individual mice M4-M6; read-out: Cmax
PARAMETER: Cmax (ng/mL)
Express your answer in ng/mL, writing the number without its unit.

Problem: Look up Cmax: Cc1ccc(Nc2nc(N/N=C/c3c[nH]c4ccccc34)nc(N3CCOCC3)n2)cc1 [Example 1]
Result: 443

====

- PROCEDURE_SUMMARY: Pharmacokinetic study of Example 1 in mouse (IV, IP, PO)
- Assay type: in vivo, Male C57BL/6 Mouse
- CONDITION_DESCRIPTION: male, C57BL/6, mouse, plasma, ip, 30 mg/kg, IP 30 mg/kg; individual mice M4-M6; read-out: MRT0-last
PARAMETER: MRT last (h)
Express your answer in h, writing the number without its unit.

Problem: Look up MRT last: Cc1ccc(Nc2nc(N/N=C/c3c[nH]c4ccccc34)nc(N3CCOCC3)n2)cc1
Result: 7.2

====

- PROCEDURE_SUMMARY: Pharmacokinetic study of Example 1 in mouse (IV, IP, PO)
- Type: in vivo, Male C57BL/6 Mouse
- CONDITION_DESCRIPTION: male, C57BL/6, mouse, plasma, ip, 30 mg/kg, IP 30 mg/kg; individual mice M4-M6; read-out: MRT0-inf
PARAMETER: MRT inf
Value and unit, in that order.

Problem: Look up MRT inf: Cc1ccc(Nc2nc(N/N=C/c3c[nH]c4ccccc34)nc(N3CCOCC3)n2)cc1
Result: 13 h

====

- PROCEDURE_SUMMARY: Pharmacokinetic study of Example 1 in mouse (IV, IP, PO)
- Type: in vivo, Male C57BL/6 Mouse
- CONDITION_DESCRIPTION: male, C57BL/6, mouse, plasma, iv, 5 mg/kg, IV 5 mg/kg; 1.00 h; individual mice M1-M3
PARAMETER: concentration at 1 h (ng/mL)
Express your answer in ng/mL, writing the number without its unit.

Problem: Look up concentration at 1 h: Cc1ccc(Nc2nc(N/N=C/c3c[nH]c4ccccc34)nc(N3CCOCC3)n2)cc1 [Example 1]
Result: 529

====

- PROCEDURE_SUMMARY: Pharmacokinetic study of Example 1 in mouse (IV, IP, PO)
- Type: in vivo, Male C57BL/6 Mouse
- CONDITION_DESCRIPTION: male, C57BL/6, mouse, plasma, po, 30 mg/kg, PO 30 mg/kg; 6.00 h; mean
PARAMETER: concentration at 6 h (ng/mL)
Express your answer in ng/mL, writing the number without its unit.

Problem: Look up concentration at 6 h: Cc1ccc(Nc2nc(N/N=C/c3c[nH]c4ccccc34)nc(N3CCOCC3)n2)cc1 [Example 1]
Result: 10

====

- PROCEDURE_SUMMARY: Pharmacokinetic study of Example 1 in mouse (IV, IP, PO)
- Assay type: in vivo, Male C57BL/6 Mouse
- CONDITION_DESCRIPTION: male, C57BL/6, mouse, plasma, po, 30 mg/kg, PO 30 mg/kg; mean; read-out: AUC0-inf
PARAMETER: AUC(0-inf)
Value and unit, in that order.

Problem: Look up AUC(0-inf): Cc1ccc(Nc2nc(N/N=C/c3c[nH]c4ccccc34)nc(N3CCOCC3)n2)cc1
Result: 211 ng·h/mL

====

- PROCEDURE_SUMMARY: Pharmacokinetic study of Example 1 in mouse (IV, IP, PO)
- Format: in vivo, Male C57BL/6 Mouse
- CONDITION_DESCRIPTION: male, C57BL/6, mouse, plasma, po, 30 mg/kg, PO 30 mg/kg; 1.00 h; mean
PARAMETER: concentration at 1 h (ng/mL)
Express your answer in ng/mL, writing the number without its unit.

Problem: Look up concentration at 1 h: Cc1ccc(Nc2nc(N/N=C/c3c[nH]c4ccccc34)nc(N3CCOCC3)n2)cc1
Result: 92

====

- PROCEDURE_SUMMARY: Pharmacokinetic study of Example 1 in mouse (IV, IP, PO)
- Assay type: in vivo, Male C57BL/6 Mouse
- CONDITION_DESCRIPTION: male, C57BL/6, mouse, plasma, ip, 30 mg/kg, IP 30 mg/kg; 0.500 h; mean
PARAMETER: concentration at 0.5 h

Problem: Look up concentration at 0.5 h: Cc1ccc(Nc2nc(N/N=C/c3c[nH]c4ccccc34)nc(N3CCOCC3)n2)cc1 [Example 1]
Result: 396 ng/mL

====

- PROCEDURE_SUMMARY: Pharmacokinetic study of Example 3 in mouse (IV, IP)
- Type: in vivo, C57 Mouse
- CONDITION_DESCRIPTION: C57, mouse, plasma, intraperitoneal, 30 mg/kg, 30 mg/kg IP; 24.00 h; mean; read-out: Plasma concentrations
PARAMETER: concentration at 24 h (ng/mL)
Express your answer in ng/mL, writing the number without its unit.

Problem: Look up concentration at 24 h: Cc1ccc(Nc2nc(N/N=C/c3c[nH]c4ccccc34)cc(N3CCOCC3)n2)cc1
Result: 146

====

- PROCEDURE_SUMMARY: Pharmacokinetic study of Example 3 in mouse (IV, IP)
- Type: in vivo, C57 Mouse
- CONDITION_DESCRIPTION: C57, mouse, plasma, intraperitoneal, 30 mg/kg, 30 mg/kg IP; 4.00 h; individual animals 201M-203M; read-out: Plasma concentrations
PARAMETER: concentration at 4 h (ng/mL)
Express your answer in ng/mL, writing the number without its unit.

Problem: Look up concentration at 4 h: Cc1ccc(Nc2nc(N/N=C/c3c[nH]c4ccccc34)cc(N3CCOCC3)n2)cc1
Result: 1600

====

- PROCEDURE_SUMMARY: Pharmacokinetic study of Example 1 in mouse (IV, IP, PO)
- Type: in vivo, Male C57BL/6 Mouse
- CONDITION_DESCRIPTION: male, C57BL/6, mouse, plasma, iv, 5 mg/kg, IV 5 mg/kg; individual mice M1-M3; read-out: MRT0-inf
PARAMETER: MRT inf (min)
Express your answer in min, writing the number without its unit.

Problem: Look up MRT inf: Cc1ccc(Nc2nc(N/N=C/c3c[nH]c4ccccc34)nc(N3CCOCC3)n2)cc1 [Example 1]
Result: 57.5

====

- PROCEDURE_SUMMARY: Pharmacokinetic study of Example 3 in mouse (IV, IP)
- Assay type: in vivo, C57 Mouse
- CONDITION_DESCRIPTION: C57, mouse, plasma, intraperitoneal, 30 mg/kg, 30 mg/kg IP; 0.25 h; individual animals 201M-203M; read-out: Plasma concentrations
PARAMETER: concentration at 0.25 h
Value and unit, in that order.

Problem: Look up concentration at 0.25 h: Cc1ccc(Nc2nc(N/N=C/c3c[nH]c4ccccc34)cc(N3CCOCC3)n2)cc1
Result: 1490 ng/mL

====

- PROCEDURE_SUMMARY: Pharmacokinetic study of Example 1 in mouse (IV, IP, PO)
- Assay type: in vivo, Male C57BL/6 Mouse
- CONDITION_DESCRIPTION: male, C57BL/6, mouse, plasma, po, 30 mg/kg, PO 30 mg/kg; 0.250 h; mean
PARAMETER: concentration at 0.25 h (ng/mL)
Express your answer in ng/mL, writing the number without its unit.

Problem: Look up concentration at 0.25 h: Cc1ccc(Nc2nc(N/N=C/c3c[nH]c4ccccc34)nc(N3CCOCC3)n2)cc1 [Example 1]
Result: 59.1
